# Measured On: Dynamin-1 (Dyn1) (Homo sapiens, UniProt Q05193)
# Construct: made in house; host or cells: Sf9 (Spodoptera frugiperda) insect cells
# Sequence (Q05193 1-864): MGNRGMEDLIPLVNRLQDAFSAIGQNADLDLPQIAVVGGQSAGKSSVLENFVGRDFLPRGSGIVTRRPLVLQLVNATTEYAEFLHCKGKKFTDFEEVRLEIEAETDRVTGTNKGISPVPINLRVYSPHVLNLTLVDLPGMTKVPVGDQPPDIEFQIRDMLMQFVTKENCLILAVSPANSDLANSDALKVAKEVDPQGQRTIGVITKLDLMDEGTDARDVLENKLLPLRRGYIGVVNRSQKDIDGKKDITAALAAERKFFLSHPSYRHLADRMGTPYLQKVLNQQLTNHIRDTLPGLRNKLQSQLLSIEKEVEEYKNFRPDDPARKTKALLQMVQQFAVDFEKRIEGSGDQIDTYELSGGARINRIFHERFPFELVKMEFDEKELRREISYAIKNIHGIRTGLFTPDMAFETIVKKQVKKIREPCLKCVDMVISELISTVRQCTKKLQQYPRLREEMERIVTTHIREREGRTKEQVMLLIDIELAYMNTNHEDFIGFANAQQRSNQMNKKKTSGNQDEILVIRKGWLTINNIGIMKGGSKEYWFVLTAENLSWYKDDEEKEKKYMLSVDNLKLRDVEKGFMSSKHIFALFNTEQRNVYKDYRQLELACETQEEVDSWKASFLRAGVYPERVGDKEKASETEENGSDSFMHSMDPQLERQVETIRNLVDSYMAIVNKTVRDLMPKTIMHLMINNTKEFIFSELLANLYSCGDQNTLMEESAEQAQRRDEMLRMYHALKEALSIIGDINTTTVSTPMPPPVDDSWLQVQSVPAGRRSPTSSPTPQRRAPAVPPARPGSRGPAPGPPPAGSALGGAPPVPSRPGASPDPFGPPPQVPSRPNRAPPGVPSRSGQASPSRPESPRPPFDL
# Assay Comment: Lipid nanotube (NT)-stimulated GTPase activity, malachite green assay
# Assay type: biochemical
# Condition Context: 100 nM Dyn1, 300 μM lipid nanotubes, 25 μM GTP, 37°C; read-out: IC50, inhibition of NT-stimulated GTPase activity of Dyn1
Provide the recorded pIC50 for the entries that follow.
Formally, pIC50 is defined as -log10 of the concentration c, with c in mol/L.

Case O=C(N/N=C/c1cc(O)c(O)cc1O)c1cc2ccccc2cc1O , Dynamin-1 (Dyn1) (Homo sapiens, UniProt Q05193), pIC50 recorded as 4.34

The reported pIC50 value, Dynamin-1 (Dyn1) (Homo sapiens, UniProt Q05193), for O=C(N/N=C/c1ccc(O)c(O)c1)c1cc2ccccc2cc1O reads 4.08
